Target system: Human PDE9 (PDE9A2) (Homo sapiens (Human), UniProt O76083)
Sequence (O76083 other isoform, or with tags, fused parts or gaps): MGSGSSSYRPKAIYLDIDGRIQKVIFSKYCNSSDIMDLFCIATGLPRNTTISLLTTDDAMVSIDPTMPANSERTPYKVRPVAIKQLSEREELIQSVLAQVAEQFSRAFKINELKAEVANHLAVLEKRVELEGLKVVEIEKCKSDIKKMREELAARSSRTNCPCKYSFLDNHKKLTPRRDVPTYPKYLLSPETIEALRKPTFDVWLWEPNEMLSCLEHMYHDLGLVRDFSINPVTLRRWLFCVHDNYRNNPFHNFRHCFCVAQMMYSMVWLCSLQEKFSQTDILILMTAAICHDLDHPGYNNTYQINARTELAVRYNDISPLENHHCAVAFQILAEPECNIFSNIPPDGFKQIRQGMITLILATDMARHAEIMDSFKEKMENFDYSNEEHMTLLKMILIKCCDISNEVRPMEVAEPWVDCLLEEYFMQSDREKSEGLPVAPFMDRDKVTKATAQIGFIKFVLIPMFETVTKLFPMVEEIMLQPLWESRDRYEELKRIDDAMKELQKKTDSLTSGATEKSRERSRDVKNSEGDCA
pKi: −log10 of the molar value.
Given measured pKi, output criterion met if it is greater than or equal to 9 and criterion not met if not.

Solved cases below.
CCC(c1ncccn1)N(C)c1nc2c(c(C#N)nn2C(C)c2ccc(C(F)(F)F)cc2)c(=O)[nH]1 (single isomer, unassigned) [Example 13] ... criterion not met
C=CCCC(c1ncccn1)N(C)c1nc2c(c(C#N)nn2C(C)c2ccc(C(F)(F)F)nc2)c(=O)[nH]1 (single isomer, unassigned) [Example 41] ... criterion met
CC(c1ccc(C(F)(F)F)nc1)n1nc(C#N)c2c(=O)[nH]c(N(C)C(c3ncccn3)C3CC3)nc21 (single isomer, unassigned) [Example 28] ... criterion not met
CCC(c1ncccn1)N(C)c1nc2c(c(C#N)nn2C(C)c2ccc(C3CC3)nc2)c(=O)[nH]1 (single isomer, unassigned) [Example 4] ... criterion met
CC(c1ccc(C(F)(F)F)nc1)n1nc(C#N)c2c(=O)[nH]c(N3CCC3c3ncccn3)nc21 (single isomer, unassigned) [Example 48] ... criterion not met

Challenge: API: above_or_equal(metric=pKi, cutoff=9) for item CCC(c1ncc(F)cn1)N(C)c1nc2c(c(C#N)nn2C(C)c2ccc(C3CC3)nc2)c(=O)[nH]1 (single isomer, unassigned) [Example 63]
Response given: criterion not met

Challenge: # check: pKi of CCC(c1ncccn1)N(C)c1nc2c(c(C#N)nn2C(C)c2ccc(C(F)(F)F)cc2)c(=O)[nH]1 (single isomer, unassigned) [Example 16] is greater than or equal to 9
Response given: criterion not met

Challenge: Kindly determine if pKi recorded for CCC(c1ncc(F)cn1)N(C)c1nc2c(c(C#N)nn2C(C)c2ccc(C(F)(F)F)nc2)c(=O)[nH]1 (single isomer, unassigned) is above or exactly 9.
Response given: criterion not met

Challenge: Is it the case that CC(Cc1nc2c(c(C#N)nn2C(C)c2ccc(C(F)(F)F)nc2)c(=O)[nH]1)c1ncccn1 (single isomer, unassigned) [Example 83] has pKi reaching or exceeding 9?
Response given: criterion not met

* * *

The following compounds are shown together with reported pKi values.
Target system: Human PDE9 (PDE9A2) (Homo sapiens (Human))
Note on pKi: it is the negative log10 of concentration, concentration in mol/L.

Some solved cases for reference:
CC(C)C(c1ncccn1)N(C)c1nc2c(c(C#N)nn2C(C)c2ccc(C(F)(F)F)nc2)c(=O)[nH]1 (single isomer, unassigned) [Example 21] ... 7.82
CCC(Cc1nc2c(c(C#N)nn2C(C)c2ccc(C(F)(F)F)nc2)c(=O)[nH]1)c1ncccn1 (single isomer, unassigned) [Example 87] ... 7.03
CC(c1ccc(C(F)(F)F)nc1)n1nc(C#N)c2c(=O)[nH]c(N3CCCC3c3ncccn3)nc21 (single isomer, unassigned) [Example 56] ... 6.54

Challenge: What pKi value was documented for this compound, CC(c1ccc(C(F)(F)F)nc1)n1nc(C#N)c2c(=O)[nH]c(N3CCC3c3ncccn3)nc21 (single isomer, unassigned) [Example 45] ?
Response given: 9.64

Challenge: Name the reported pKi value associated with the compound CCC(c1ncccn1)N(C)c1nc2c(c(C#N)nn2C(C)c2ccc(C(F)(F)F)nc2)c(=O)[nH]1 (single isomer, unassigned) [Example 10]
Response given: 8.00

Challenge: Would you kindly share the measured pKi for CCC(c1ncc(F)cn1)N(C)c1nc2c(c(C#N)nn2C(C)C2CCOCC2)c(=O)[nH]1 (single isomer, unassigned) [Example 39] ?
Response given: 9.77
